molecular target: mTGR5-R76Q/Q79R/H88Y (Mus musculus, UniProt Q80SS6, H88Y/Q79R/R76Q); test: CRE-luciferase reporter assay in HEK293 cells transfected with mouse-to-human triple mutant TGR5
Sequence (Q80SS6 whole entry R76Q/Q79R/H88Y): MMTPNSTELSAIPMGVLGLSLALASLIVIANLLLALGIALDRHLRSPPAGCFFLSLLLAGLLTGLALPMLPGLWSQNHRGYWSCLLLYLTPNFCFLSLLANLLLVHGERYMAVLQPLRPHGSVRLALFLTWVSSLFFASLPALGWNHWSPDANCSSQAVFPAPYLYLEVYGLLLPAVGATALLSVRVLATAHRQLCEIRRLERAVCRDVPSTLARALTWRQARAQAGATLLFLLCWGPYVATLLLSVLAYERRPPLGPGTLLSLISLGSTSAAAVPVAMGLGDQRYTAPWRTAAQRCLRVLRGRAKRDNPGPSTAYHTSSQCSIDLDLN
measure-name: EC50

>  <compound>
CC1(C)OC(=O)C=C[C@]2(C)[C@H]3CC[C@@]4(C)[C@H](c5ccoc5)OC(=O)[C@H]5O[C@]54[C@]3(C)C(=O)C[C@@H]12 [obacunone]

>  <measure-name>
EC50

>  <result>
165 µM

$$$$
>  <compound>
CC(=O)O[C@H]1CC(=O)OC(C)(C)[C@@H]2CC(=O)[C@]3(C)[C@H](CC[C@@]4(C)[C@H](c5ccoc5)OC(=O)[C@H]5O[C@]543)[C@@]12C [nomilin]

>  <measure-name>
EC50

>  <result>
46.2 µM

$$$$
